assay: HILIC, Merck SeQuant ZIC-pHILIC, 150 × 2.1 mm, 5 µm, 0.1 mL/min, estimated dead time 3.3 min; A: acetonitrile; B: water + 10 mM ammonium carbonate; gradient (min/%B) 0/20 30/80; details: stereoisomer not certain
endpoint: LC retention time (min)

# compound, measure_unit, LC retention time
records = [
    ("CC(C)C(N)C(=O)O (stereo unspecified)", "min", 9.8),
]

[a] OCC1OCC(O)C(O)C1O (stereo unspecified) [1,5-Anhydroglucitol]
[b] O=C(CO)C(O)C(O)C(O)C(O)COP(=O)(O)O (stereo unspecified) [Sedoheptulose-7-phosphate]
Pick the one with the larger LC retention time: a vs b Lab log: write the label of the selected item as the result.
b

[P] CC(O)(CC(=O)O)C(=O)O (stereo unspecified) [Citramalate]
[Q] O=c1ccn(C2OC(CO)C(O)C2O)c(=O)[nH]1 (stereo unspecified)
Pick one, P or Q : lowest reported LC retention time. Lab log: write the label of the selected item as the result.
Q
(Q: 7.1 min, P: 12.6 min)

====

assay: HILIC, Merck SeQuant ZIC-pHILIC, 150 × 2.1 mm, 5 µm, 0.1 mL/min, estimated dead time 3.3 min; A: acetonitrile; B: water + 10 mM ammonium carbonate; gradient (min/%B) 0/20 30/80; conditions: stereoisomer not certain
endpoint: LC retention time (min)

A selection of reference data follows.
# compound, LC retention time / min
measured = [
    ("OC1C(O)C(O)C(O)C(O)C1O (configuration not stated)", 14.4),
    ("CN(C)c1nc2c(ncn2C2OC(CO)C(O)C2O)c(=O)[nH]1 (configuration not stated)", 6),
    ("NC(CCCCNC(CCC(=O)O)C(=O)O)C(=O)O (configuration not stated)", 13.3),
    ("Nc1ccn(C2OC(COP(=O)(O)OP(=O)(O)OP(=O)(O)O)C(O)C2O)c(=O)n1 (configuration not stated)", 15.5),
    ("O=C(O)CCCCC1SCC2NC(=O)NC21 (configuration not stated)", 6.2),
    ("Nc1ccccc1C(=O)CC(N)C(=O)O (configuration not stated)", 8),
    ("CN(CC(=O)O)C(=N)N", 12.1),
    ("CC(=O)NC(CCCN)C(=O)O (configuration not stated)", 11.1),
    ("O=c1ccn(C2OC(COP(=O)(O)O)C(O)C2O)c(=O)[nH]1 (configuration not stated)", 12.6),
    ("CC(=O)NC(CCCC[NH3+])C(=O)[O-] (configuration not stated)", 12.7),
]

[A] O=C(O)C(O)CO (configuration not stated)
[B] CN(C)C(N)=NCCCC(N)C(=O)O (configuration not stated)
[C] CC(C)(CO)C(O)C(=O)NCCC(=O)O (configuration not stated) [Pantothenate]
hey, can you rank those compounds up there by LC retention time? biggest number first please Output spec: labels arranged per the requested ranking.
B, A, C

[1] NC(CCCC(=O)O)C(=O)O (configuration not stated) [2-Aminoadipate]
[2] Nc1ncnc2nc[nH]c12
Pick the one with the larger LC retention time: 1 vs 2 Lab log: write the label of the selected item as the result.
1

====

assay: HILIC, Merck SeQuant ZIC-pHILIC, 150 × 2.1 mm, 5 µm, 0.1 mL/min, estimated dead time 3.3 min; A: acetonitrile; B: water + 10 mM ammonium carbonate; gradient (min/%B) 0/20 30/80; conditions: stereoisomer not certain
endpoint: LC retention time (min)

# compound, measure_unit, LC retention time
measured = [
    ("CN(C)CCCCC(N)C(=O)O (configuration not stated)", "min", 19.2),
    ("O=C(O)C(COP(=O)(O)O)OP(=O)(O)O (configuration not stated) [Diphospho-glycerate]", "min", 15.6),
    ("O=P(O)(O)OCC1OC(OC2OC(CO)C(O)C(O)C2O)C(O)C(O)C1O (configuration not stated) [Trehalose-6-phosphate]", "min", 14.7),
    ("C=C(OP(=O)(O)O)C(=O)[O-] [Phosphoenolpyruvate]", "min", 15.1),
]

[A] Nc1nc2c(ncn2C2OC(COP(=O)(O)OP(=O)(O)OP(=O)(O)O)C(O)C2O)c(=O)[nH]1 (configuration not stated)
[B] NC(Cc1ccccc1)C(=O)O (configuration not stated)
Pick the one with the larger LC retention time: A vs B Lab log: write the label of the selected item as the result.
A
(A: 16.4 min, B: 7.3 min)

Taken from the RepoRT retention time repository (doi:10.1039/c4mb00346b).
